testSummary: Acute toxicity (LD50 by the Weil method)
conditionParameters: male, ddY, mouse, in vivo, po, in distilled water, fasted overnight; dead animals counted one week later; read-out: LD₅₀
assayReadout: LD50 at 1 week (mg/kg)
Give the value, in units of mg/kg, as a plain number.

Tell me measured LD50 at 1 week for C=CCN1CCN(c2nc(OCCCCC)c3ccccc3n2)CC1.Cl.Cl [Compound of the invention (2HCl)] please. 1270

----------
testSummary: Acute toxicity (LD50 by the Weil method)
conditionParameters: male, ddY, mouse, in vivo, ip, in saline; dead animals counted one week later; read-out: LD₅₀
assayReadout: LD50 at 1 week (mg/kg)
Give the value, in units of mg/kg, as a plain number.

Tell me measured LD50 at 1 week for C=CCN1CCN(c2nc(OCCCCC)c3ccccc3n2)CC1.Cl.Cl [Compound of the invention (2HCl)] please. 220
